Sourced from patent US20200031811A1

Parameter: pIC50. Scope: all listed entries.
Target: MNK1 (Homo sapiens, UniProt Q9BUB5)
Sequence (Q9BUB5 whole entry): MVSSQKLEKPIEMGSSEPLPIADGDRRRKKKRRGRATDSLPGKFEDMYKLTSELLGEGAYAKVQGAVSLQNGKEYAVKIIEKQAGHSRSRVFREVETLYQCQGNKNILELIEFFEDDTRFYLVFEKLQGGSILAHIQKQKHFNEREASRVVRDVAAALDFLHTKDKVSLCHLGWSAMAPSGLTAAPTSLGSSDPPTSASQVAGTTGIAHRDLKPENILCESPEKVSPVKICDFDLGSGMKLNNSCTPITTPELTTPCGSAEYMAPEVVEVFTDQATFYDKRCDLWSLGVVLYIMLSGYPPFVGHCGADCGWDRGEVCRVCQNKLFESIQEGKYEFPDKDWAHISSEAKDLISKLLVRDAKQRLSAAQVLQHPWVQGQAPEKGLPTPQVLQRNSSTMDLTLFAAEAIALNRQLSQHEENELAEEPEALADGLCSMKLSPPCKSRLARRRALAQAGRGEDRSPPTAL
Assay: MNK inhibition assay (Z-Lyte kinase assay, Ser/Thr 7 peptide)
Settings: recombinant GST-MNK1, 3 hours at 31° C.
Keep in mind that pIC50 stands for -log10 of concentration in molar terms.

>  <molecule>
NC1CCN(Cc2cc(Cl)c3cncc(-c4cc5ccccc5o4)c3c2)CC1 [Example 236]

>  <pIC50>
6.24

$$$$

Which pIC50 value is on record for Cn1cc(-c2cncc3ccc(CN4CCC(N)CC4)cc23)cn1 [Example 203] ?
6.20

I am curious: what pIC50 value has been reported for N#Cc1cc(CN2CCC(N)CC2)cc2c(-c3cc4ccccc4o3)cncc12 [Example 306] ?
6.75

Reported pIC50, molecule Cc1ccc(-c2cncc3ccc(CN4CCC(N)CC4)cc23)o1 [Example 167] : ____
5.98

Give the measured pIC50 of NC1CCN(Cc2ccc3cncc(-c4ccc(NC(=O)Nc5ccccn5)cc4)c3c2)CC1 [Example 119] .
6.41

Item NC1CCN(Cc2ccc3cncc(-c4cc5ccccc5[nH]4)c3c2)CC1 [Example 6] has what recorded pIC50?
6.04

For the molecule shown here, COc1cc(CN2CCC(N)CC2)cc2c(-c3ccc(F)c(F)c3)cncc12 [Example 243] , give the reported pIC50.
6.46

For the molecule Oc1ccc(-c2cncc3ccc(CNC4CCNCC4)cc23)cc1 [Example 40] , what pIC50 is on record?
6.58

Reported pIC50, molecule CO[C@@H]1CN(Cc2ccc3cncc(-c4cc5ccccc5o4)c3c2)CC[C@H]1N [Example 271] : ____
6.54

// lookup pIC50 for NC1CCN(Cc2ccc3cncc(-c4cnc5ccccc5c4)c3c2)CC1 [Example 173]
6.02
